tested on: Staphylococcus aureus; test: Antibacterial activity against Staphylococcus aureus assessed as bacterial growth inhibition by serial dilution method; assay type: functional
endpoint.name: MIC (µg/mL)
# value in µg/mL; strip the unit string

See these solved cases before continuing.
Cc1cnc(N2CCN(c3cc4c(cc3F)c(=O)c(C(=O)O)cn4C3CC3)CC2)nc1 ... 128
Cc1ccnc(N2CCN(c3cc4c(cc3F)c(=O)c(C(=O)O)cn4C3CC3)CC2)n1 ... 256
CCn1cc(C(=O)O)c(=O)c2cc(F)c(N3CCNCC3)cc21 [NORFLOXACIN] ... 4
CCn1cc(C(=O)O)c(=O)c2cc(F)c(N3CCN(c4ncc(C)cn4)CC3)cc21 ... 4

Then there is this compound:
INPUT: Item `CCc1cnc(N2CCN(c3cc4c(cc3F)c(=O)c(C(=O)O)cn4CC)CC2)nc1` with Staphylococcus aureus - MIC?
OUTPUT: 8

====

test: Cytotoxicity against human HaCaT cells assessed as cell viability at 12.5 ug/ml by CCK-8 assay relative to control; type: toxicity, cell-based; settings: at 12.5 µg/mL, read-out: Activity
Measured viability at 12.5 ug/ml, listed per entry for reference.

O=C(O)c1cn(C2CC2)c2cc(N3CCN(c4ncccn4)CC3)c(F)cc2c1=O ... > 90%

INPUT: Item `CCn1cc(C(=O)O)c(=O)c2cc(F)c(N3CCN(c4nccc(N)n4)CC3)cc21` has what recorded viability at 12.5 ug/ml?
OUTPUT: > 90%

====

tested on: Staphylococcus aureus; assay: Antibacterial activity against Staphylococcus aureus ATCC 25923 assessed as bacterial growth inhibition by serial dilution method; type: functional
// MIC lookup, one value per entry
Your answer is read as µg/mL, so omit the unit and give the number.

Examples with their reported MIC follow.
CCn1cc(C(=O)O)c(=O)c2cc(F)c(N3CCN(c4ncc(Br)cn4)CC3)cc21 ... 64
CCn1cc(C(=O)O)c(=O)c2cc(F)c(N3CCN(c4nccc(C(F)(F)F)n4)CC3)cc21 ... 256
CCn1cc(C(=O)O)c(=O)c2cc(F)c(N3CCN(c4ncc(C)cn4)CC3)cc21 ... 64
CCn1cc(C(=O)O)c(=O)c2cc(F)c(N3CCN(c4nccc(N)n4)CC3)cc21 ... 0.5

INPUT: Any idea what MIC was measured for `COc1cnc(N2CCN(c3cc4c(cc3F)c(=O)c(C(=O)O)cn4C3CC3)CC2)nc1` ?
OUTPUT: 8

====

test system: Klebsiella pneumoniae; experiment: Antibacterial activity against Klebsiella pneumoniae assessed as bacterial growth inhibition by serial dilution method; type: functional
Binary label based on MIC with cut-off 60 µg/mL: below gives Condition met, not below gives Condition not met.

Answered cases to consult:
CCc1cnc(N2CCN(c3cc4c(cc3F)c(=O)c(C(=O)O)cn4C3CC3)CC2)nc1 ... Condition not met
CCn1cc(C(=O)O)c(=O)c2cc(F)c(N3CCN(c4ncc(Br)cn4)CC3)cc21 ... Condition not met
CCn1cc(C(=O)O)c(=O)c2cc(F)c(N3CCN(c4ncccn4)CC3)cc21 ... Condition met
CCc1cnc(N2CCN(c3cc4c(cc3F)c(=O)c(C(=O)O)cn4CC)CC2)nc1 ... Condition met
COc1cnc(N2CCN(c3cc4c(cc3F)c(=O)c(C(=O)O)cn4C3CC3)CC2)nc1 ... Condition met
CCn1cc(C(=O)O)c(=O)c2cc(F)c(N3CCN(c4ncc(C)cn4)CC3)cc21 ... Condition met
O=C(O)c1cn(C2CC2)c2cc(N3CCN(c4ncc(Br)cn4)CC3)c(F)cc2c1=O ... Condition not met
Cc1ccnc(N2CCN(c3cc4c(cc3F)c(=O)c(C(=O)O)cn4C3CC3)CC2)n1 ... Condition not met
O=C(O)c1cn(C2CC2)c2cc(N3CCN(c4ncccn4)CC3)c(F)cc2c1=O ... Condition not met

Continue with the compound presented below.
INPUT: Take the compound `CCn1cc(C(=O)O)c(=O)c2cc(F)c(N3CCN(c4ncc(OC)cn4)CC3)cc21` and say whether its MIC is less than 60 µg/mL.
OUTPUT: Condition not met
